# Test system: GR complex
# method-notes: modulation of [35S]TBPS binding in rat cerebral cortex P2 homogenate
# Set-up: species or system Sprague-Dawley rats; unit not given here
# assay-conditions: maximum inhibition of [35S]TBPS binding; I* = Inactive
measured-quantity: IMAX
One number for each entry.

Here's what some known entries look like.
C#C[C@@]1(O)CC[C@H]2[C@H](CC[C@@H]3[C@@H]2CC[C@]2(C)[C@@H](C(C)=O)CC[C@@H]32)C1 : 93
COC(=O)CCC(=O)OCC(=O)C1CCC2C3CCC4CC(O)(C(F)(F)F)CCC4(C)C3CCC12C (stereo not shown) : 86

For the next question, use this compound.
Lookup: Quick one: IMAX for CCC(=O)[C@H]1CC[C@H]2[C@@H]3CC[C@H]4C[C@](C)(O)CC[C@]4(C)[C@H]3CC[C@]12C ?
Found: 85

* * *

# Tested on: mice
# method-notes: elevated plus-maze
# Format: in vivo, N.I.H. Swiss-Webster mice
# assay-conditions: IP, 50% hpbcd, 10 mg/kg
measured-quantity: % Control (%)
Numbers only, in %.

Reference set (5 entries):
C[C@]12CC[C@](O)(C(F)(F)F)C[C@H]1CC[C@@H]1[C@@H]2CC[C@]2(C)[C@@H](C(=O)CO)CC[C@@H]12 : 237
C=C(C)C#CC1(O)CCC2(C)C(CCC3C2CCC2(C)C(C(C)=O)CCC32)C1 (stereo not drawn) : 141
CC(=O)[C@H]1CC[C@H]2[C@@H]3CC[C@@H]4C[C@@](O)(C(F)(F)F)CC[C@@H]4[C@H]3CC[C@]12C : 173.8
C#C[C@@]1(O)CC[C@@]2(C)[C@H](CC[C@@H]3[C@@H]2CC[C@]2(C)[C@@H](C(=O)COC(=O)CCC(=O)O)CC[C@@H]32)C1 [3α,21-dihydroxy-3β-ethynyl-5β-pregnan-20-one 21 hemisuccinat] : 164.2
CC(=O)C1CCC2C3CCC4CC(O)(C(F)(F)F)CCC4(C)C3C(=O)CC12C (stereo not drawn) : 112

Lookup: Field: % Control (mice). Entry: CC(=O)[C@H]1CC[C@H]2[C@@H]3CC[C@H]4C[C@@](O)(C(F)(F)F)CC[C@@H]4[C@H]3CC[C@]12C
Found: 161

* * *

Task for the reader: assign each of the following molecules its reported % Control.
# Test system: mice
# method-notes: elevated plus-maze
# Assay type: in vivo, N.I.H. Swiss-Webster mice
# assay-conditions: IP, 50% hpbcd, 10 mg/kg
Numbers only, in %.

Completed entries (count: 2):
C#C[C@@]1(O)CC[C@@]2(C)[C@H](CC[C@@H]3[C@@H]2CC[C@]2(C)[C@@H](C(=O)COC(C)=O)CC[C@@H]32)C1 : 159
C[C@]12CC[C@H]3[C@@H](CC[C@@H]4C[C@@](O)(C(F)(F)F)CC[C@@H]43)[C@@H]1CC[C@@H]2C(=O)CO : 140

Provide reported % Control for each item, in the same order as listed.
1. C#C[C@@]1(O)CC[C@@]2(C)[C@H](CC[C@H]3[C@@H]4CC[C@H](C(C)=O)[C@@]4(C)C=C[C@@H]32)C1
2. C#C[C@@]1(O)CC[C@@]2(C)[C@H](CC[C@@H]3[C@@H]2CC[C@]2(C)[C@@H](C(=O)CO)CC[C@@H]32)C1
3. C=C(C)C#C[C@@]1(O)CC[C@@]2(C)[C@H](CC[C@@H]3[C@@H]2CC[C@]2(C)[C@@H](C(C)=O)CC[C@@H]32)C1

Found:
233
162
155

I have 2 molecules here; please give me % Control for each one.
1. C#C[C@@]1(O)CC[C@H]2[C@H](CC[C@@H]3[C@@H]2CC[C@]2(C)[C@@H](C(C)=O)CC[C@@H]32)C1
2. C=C[C@@]1(O)CC[C@@]2(C)[C@H](CC[C@@H]3[C@@H]2CC[C@]2(C)[C@@H](C(C)=O)CC[C@@H]32)C1 [3β-ethenyl-3α-hydroxy-5β-pregnan-20-one]

Found:
1. 172
2. 151
